Ref: the supplement of paper PMC9732359

Assay: protein stability index of a GFP-peptide fusion (yeast GPS) (PSI 1-4); higher = more stable; sorted into four equal gates, so the index is relative within each strain
Conditions: ubr1∆
test readout: protein stability index
Reply briefly: the number, and no unit.

In the examples that follow, each entry is paired with its recorded protein stability index.
[[record]]
sequence_code = "KSTDNSAIRQVFERFKT [IRR1]"
data_value = 2.8

[[record]]
sequence_code = "SNKSNSTNESNKSISDE [SSN2]"
data_value = 3.09

[[record]]
sequence_code = "IAKLVAVLNVSPVYDVD [NUT1]"
data_value = 1.75

[[record]]
sequence_code = "NLKGRPYTGWVDSKTKE [FAS2]"
data_value = 3.04

[[record]]
sequence_code = "TSPEKKDGGDKPPSSAF [YAR002W/NUP60]"
data_value = 3.72

[[record]]
sequence_code = "ITSFGFGQKGGQAIVVH [FAS2]"
data_value = 1.69


IN: Dear colleague, I am looking for the recorded protein stability index of the following sequence: QLETLTGSIRHRLKLCK [CSE2]
OUT: 2.97

IN: Which protein stability index is reported for this sequence? NLPEHIVPGTYIQERNP [RPS10A]
OUT: 2.68

IN: Quick one: protein stability index of GRSWDGKEHIVAALVSL [ECM29] ?
OUT: 1.65

IN: # protein stability index lookup, item RQFVSNVRSVIRSSRSR [RPP1]
OUT: 3.09

IN: // query protein stability index value for entry ERLHELKKLQSDIESAN [SMC1]
OUT: 3.2

IN: Endpoint output: protein stability index of SFTQGELNDLKWGRNQP [YMR129W/POM152] . Value?
OUT: 2.78

IN: Sample LENMPHPWEQAKEVKVL [PRP8] — what was its protein stability index?
OUT: 2.94

IN: I would be grateful if you could share the reported protein stability index for AAGSYYVEAQHKLVFVV [RPL7A] .
OUT: 2.4

IN: What protein stability index value was documented for this sequence, SSGDFDDNNNNNNNNNN [GRR1] ?
OUT: 3.04

IN: Fill blank: measured protein stability index of the sequence IHNYDSKKSTITVRYWL [RGR1] is ____.
OUT: 3.09

IN: I would be grateful if you could share the reported protein stability index for AKKRRPAAKGKNLSFKR [RRP6] .
OUT: 2.81

IN: # input sequence: PGSRASSRFIKGGSLYG [RPN2] ; wanted: its protein stability index
OUT: 2.14

IN: Field request: protein stability index | item: PSAGPHKLRESLPLIVF [RPS4A]
OUT: 2.05

IN: I have this sequence here, TRKAARPQKLRASLVPG [RPL6A] , and I need its recorded protein stability index.
OUT: 2

IN: protein stability index lookup needed for FGYPETIANSIILHFAN [YMR153W/NUP53] , thanks.
OUT: 2.15

IN: What value of protein stability index has been recorded for this entry: AALAPKIGPLGLSPKKV [RPL12A]
OUT: 3.26

IN: Endpoint output: protein stability index of LKEYQSKIIVFPRDGKA [RPL13B] . Value?
OUT: 3.17

IN: Look up protein stability index for this sequence: NGVRALFHSCTRIQYVD [GRR1]
OUT: 2.59

IN: What value of protein stability index has been recorded for this entry: VIDTLAAGYGKILGKGR [RPL28]
OUT: 3.52
